# experimental.target: purified catalytic domain of recombinant human TACE (rhTACEc) (Homo sapiens, UniProt P78536, N452Q/S266A)
# Construct: 6xHis (C); made in house; host or cells: baculovirus/Hi5 insect cells
# Sequence (P78536 215-477 S266A/N452Q): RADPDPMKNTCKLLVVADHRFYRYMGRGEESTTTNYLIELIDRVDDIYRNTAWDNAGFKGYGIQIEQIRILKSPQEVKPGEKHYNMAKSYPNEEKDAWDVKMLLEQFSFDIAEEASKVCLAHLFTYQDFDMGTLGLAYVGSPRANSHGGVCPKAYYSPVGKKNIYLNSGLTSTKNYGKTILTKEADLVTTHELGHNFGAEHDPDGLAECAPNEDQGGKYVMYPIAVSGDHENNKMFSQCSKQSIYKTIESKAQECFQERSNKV
# experiment.description: TACE kinetic assay: cleavage of internally quenched peptide substrate TNF-FRET 2 (Ki)
# Format: biochemical
# condition.info: TNF-FRET 2 substrate, read-out: Ki
Overview of recorded Ki for various compounds
# output: bare number, implied unit nM

[[record]]
compound = "CCOc1ccc2c(c1F)C(=O)N(C[C@@]1(c3cc4nc(N5CCN(CC)CC5)ccc4o3)NC(=O)NC1=O)C2"
unit_abbreviation = "nM"
endpoint_value = 0.557

[[record]]
compound = "COc1ccc2c(c1)C(=O)N(C[C@@]1(c3cc4[nH]c(=O)ccc4o3)NC(=O)NC1=O)C2 [Compound 1946]"
unit_abbreviation = "nM"
endpoint_value = 0.37


Query: GET /values?readout=Ki&item= COc1ccc2c(c1)C(=O)N(C[C@@]1(c3cc4c(C(N)=O)nccc4o3)NC(=O)NC1=O)C2
Response: 0.58

Query: Query (compound): CNCc1ccc2oc([C@]3(CN4Cc5ccc(OC)cc5C4=O)NC(=O)NC3=O)cc2c1 ; field requested: Ki
Response: 3.99
